# pIC50 per entry
molecular target: human JAK2 kinase domain (JH1) (Homo sapiens); construct: recombinantly generated catalytic kinase (also known as JH1) domain of human JAK1, JAK2, JAK3 and TYK2; experiment: JH1 biochemical assay for JAK2 (ADP-Glo kinase assay, recombinant JH1 catalytic domain, JAK3-974 peptide, 15 μM ATP); conditions: JH1 kinase domain, ADP-Glo
Sequence (O60674 849-1124 limits assumed): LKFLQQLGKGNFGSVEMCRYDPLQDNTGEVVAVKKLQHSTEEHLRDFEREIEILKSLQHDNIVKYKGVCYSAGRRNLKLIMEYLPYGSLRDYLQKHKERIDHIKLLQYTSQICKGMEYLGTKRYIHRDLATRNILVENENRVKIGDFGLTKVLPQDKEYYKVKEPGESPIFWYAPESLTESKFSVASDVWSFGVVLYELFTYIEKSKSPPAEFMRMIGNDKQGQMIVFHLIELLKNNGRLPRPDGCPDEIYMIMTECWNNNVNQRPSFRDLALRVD
pIC50: −log10 of the molar value. Counter-ions that a name gives are not always drawn.

These recorded examples may help you get a feel for the data.
- COMPOUND: "CC[C@H]1CN(c2ccnn3cc(-c4cnn(C)c4)cc23)C(=O)[C@@]1(C#N)C1CC1"
  TESTED TARGET: "human JAK2 kinase domain (JH1) (Homo sapiens)"
  pIC50: "< 5.00"
- COMPOUND: "C[C@@H]1CN(c2ccnn3cc(-c4cnn(S(C)(=O)=O)c4)cc23)C(=O)[C@]1(C#N)C1CC1"
  TESTED TARGET: "human JAK2 kinase domain (JH1) (Homo sapiens)"
  pIC50: "6.00 to 7.00"
- COMPOUND: "Cc1cnc(-c2cc3c(N4C[C@@H](C)[C@@](C#N)(C5CC5)C4=O)ccnn3c2)s1 [Example 118, trifluoroacetate]"
  TESTED TARGET: "human JAK2 kinase domain (JH1) (Homo sapiens)"
  pIC50: "6.00 to 7.00"
- COMPOUND: "Cn1cc(-c2cc3c(N4CC[C@@](CC#N)(C5CC5)C4=O)ccnn3c2)cn1"
  TESTED TARGET: "human JAK2 kinase domain (JH1) (Homo sapiens)"
  pIC50: "5.30 to 6.00"

Request: Name the recorded pIC50 for `COc1cc(-c2cn3nccc3c(N3C[C@@H](C)[C@@](C#N)(C4CC4)C3=O)n2)c(F)cn1` .
Result: 5.30 to 6.00

Request: Sample `Cc1nn(C)cc1-c1cc2c(N3C[C@@H](C)[C@@](C#N)(C4CC4)C3=O)ccnn2c1` — what was its pIC50?
Result: 6.00 to 7.00

Request: I would be grateful if you could share the reported pIC50 for `Cc1cc(-c2cc3c(N4C[C@@H](C)[C@@](C#N)(C5CC5)C4=O)ccnn3c2)ccn1` .
Result: 6.00 to 7.00

Reference for the values: patent US20260297085A1
